target: soluble guanylate cyclase (sGC) (Homo sapiens, UniProt Q02108+Q02153); construct: endogenously expressing soluble guanylate cyclase (sGC); endogenous in cells; host or cells: HEK293; test: sGC-HEK-cGMP assay (run with SNP incubation); type: cell-based; details: Table 3B; top of concentration-response curve not fitted to 100%; 10 μM SNP; 100% = 30 μM BAY 41-2272 with 10 μM SNP; read-out: HEK assay Emax-unconstrained (Percent)
measured-metric: Emax

compound	study-system	Emax
Cc1cccc(Cn2nc(-c3ncc(F)c(O)n3)cc2-c2ccon2)c1F [Compound 86]	soluble guanylate cyclase (sGC) (Homo sapiens, UniProt Q02108+Q02153)	60 to 80%

// map Oc1nc(-c2cc(-c3ccon3)n(Cc3cccc(F)c3F)n2)ncc1Cl [Compound 76] to recorded Emax (system: soluble guanylate cyclase (sGC) (Homo sapiens, UniProt Q02108+Q02153))
80 to 100%

Short answer please: Emax, soluble guanylate cyclase (sGC) (Homo sapiens, UniProt Q02108+Q02153), entry Nc1ccnc(-c2cc(-c3ccon3)n(Cc3cccc(Cl)c3F)n2)n1 [Compound 78]
80 to 100%

Write down the reported Emax of CC(=O)Nc1cnc(-c2cc(-c3ccon3)n(Cc3cccc(F)c3F)n2)nc1N [Compound 80] , test system: soluble guanylate cyclase (sGC) (Homo sapiens, UniProt Q02108+Q02153).
40 to 60%

Give Emax (soluble guanylate cyclase (sGC) (Homo sapiens, UniProt Q02108+Q02153)) of the following compound: O=c1[nH]c(-c2cc(-c3ncon3)n(Cc3cc(F)ccc3F)n2)ncc1F [Compound 75]
40 to 60%

# value lookup — system soluble guanylate cyclase (sGC) (Homo sapiens, UniProt Q02108+Q02153), readout Emax, item O=c1[nH]c(-c2cc(-c3ccon3)n(Cc3ccccc3F)n2)nc(F)c1C(F)(F)F [Compound 85]
40 to 60%

Lab note: need Emax for O=c1[nH]c(-c2cc(-c3ccon3)n(Cc3cccc(Cl)c3F)n2)ncc1F [Compound 77] on soluble guanylate cyclase (sGC) (Homo sapiens, UniProt Q02108+Q02153), anyone have it?
60 to 80%

---

Target: soluble guanylate cyclase (sGC) (Homo sapiens, UniProt Q02108+Q02153)
Construct: endogenously expressing soluble guanylate cyclase (sGC); endogenous in cells; host or cells: HEK293
Sequence (Q02153 1-619): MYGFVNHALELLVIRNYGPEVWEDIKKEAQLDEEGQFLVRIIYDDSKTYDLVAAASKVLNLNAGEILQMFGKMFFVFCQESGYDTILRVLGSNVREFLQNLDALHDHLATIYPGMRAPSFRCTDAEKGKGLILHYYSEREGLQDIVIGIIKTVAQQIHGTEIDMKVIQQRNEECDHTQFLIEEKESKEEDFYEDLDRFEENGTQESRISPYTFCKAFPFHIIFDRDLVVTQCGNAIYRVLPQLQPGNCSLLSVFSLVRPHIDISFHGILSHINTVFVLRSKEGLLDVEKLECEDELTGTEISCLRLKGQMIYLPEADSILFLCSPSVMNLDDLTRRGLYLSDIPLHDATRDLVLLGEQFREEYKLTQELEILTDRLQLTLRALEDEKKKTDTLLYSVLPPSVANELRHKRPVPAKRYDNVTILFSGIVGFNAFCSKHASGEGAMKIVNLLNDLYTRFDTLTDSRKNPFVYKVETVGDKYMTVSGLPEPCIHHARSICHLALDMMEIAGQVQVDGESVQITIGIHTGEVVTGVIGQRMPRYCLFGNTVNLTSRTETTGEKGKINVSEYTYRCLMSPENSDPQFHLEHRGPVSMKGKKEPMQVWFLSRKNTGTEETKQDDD
Sequence (Q02108 1-690): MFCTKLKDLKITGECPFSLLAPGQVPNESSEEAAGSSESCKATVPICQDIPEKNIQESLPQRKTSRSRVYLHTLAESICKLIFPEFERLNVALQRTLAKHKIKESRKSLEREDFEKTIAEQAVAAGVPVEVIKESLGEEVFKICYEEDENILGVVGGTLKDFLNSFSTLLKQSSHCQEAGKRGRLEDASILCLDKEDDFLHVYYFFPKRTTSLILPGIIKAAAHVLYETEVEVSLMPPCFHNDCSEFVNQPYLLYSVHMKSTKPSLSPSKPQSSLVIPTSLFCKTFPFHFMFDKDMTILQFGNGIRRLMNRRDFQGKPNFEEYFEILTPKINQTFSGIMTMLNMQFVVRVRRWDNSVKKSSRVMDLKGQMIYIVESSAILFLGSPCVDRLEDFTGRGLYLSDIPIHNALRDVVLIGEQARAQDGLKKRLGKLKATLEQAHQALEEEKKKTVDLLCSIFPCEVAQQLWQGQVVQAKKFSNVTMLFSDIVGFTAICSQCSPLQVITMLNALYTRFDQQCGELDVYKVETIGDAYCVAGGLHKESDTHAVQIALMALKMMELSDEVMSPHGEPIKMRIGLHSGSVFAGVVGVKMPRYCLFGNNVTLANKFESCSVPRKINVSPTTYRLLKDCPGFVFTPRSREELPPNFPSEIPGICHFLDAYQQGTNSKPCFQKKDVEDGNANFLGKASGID
Experiment: sGC-HEK-cGMP assay (run with SNP incubation)
Format: cell-based
Settings: in the presence of 10 μM SNP; Table 3F; read-out: HEK assay EC50
pEC50: −log10 of the molar value.
Catalogue of pEC50 values

# pEC50 lookup, item Cn1cnc2nc(-c3cc(-c4ccon4)n(Cc4ccccc4F)n3)ncc21
4.22 to 4.40

Consider the compound shown here: Nc1nc(-c2cc(-c3ccon3)n(Cc3cccc(F)c3F)n2)ncc1NC(=O)c1ccn[nH]1 What is its recorded pEC50?
> 4.70

Look up pEC50: Nc1nc(-c2cc(-c3ccon3)n(Cc3cccc(F)c3F)n2)ncc1NC(=O)c1ccc[nH]1
> 4.70
